Recorded kon by entry
- target.or.test.system: T1, human GREM1 (hGREM1-His; SEQ ID NO: 595) (human, UniProt O60565 25-184)
- T1 construct: also called biotin-hGREM1-His; recombinant human GREM1 protein
- T1 sequence: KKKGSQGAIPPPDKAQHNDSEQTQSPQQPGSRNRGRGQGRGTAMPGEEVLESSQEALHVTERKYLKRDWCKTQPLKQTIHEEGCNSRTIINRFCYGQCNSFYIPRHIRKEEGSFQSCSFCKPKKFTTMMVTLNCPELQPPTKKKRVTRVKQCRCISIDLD
- method: SPR, Biacore T200, 37 C, mAb captured, hGREM1-His injected;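 also: HBS-EP running buffer containing heparin, association and dissociation phases tracked, KD computed as koff over kon and half-life derived from koff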
A number alone suffices; assume M⁻¹ s⁻¹.

Take a look at these entries with their results.
H4H2895N (antibody, human IgG4, V domains shown, H4H prefix = human IgG4 Fc) VH: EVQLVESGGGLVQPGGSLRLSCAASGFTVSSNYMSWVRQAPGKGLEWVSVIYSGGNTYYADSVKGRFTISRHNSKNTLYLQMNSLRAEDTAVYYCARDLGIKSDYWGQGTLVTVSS VL: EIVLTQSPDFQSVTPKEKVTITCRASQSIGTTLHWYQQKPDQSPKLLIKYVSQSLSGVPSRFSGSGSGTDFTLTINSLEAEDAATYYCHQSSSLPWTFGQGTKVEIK :: 175000
H4H6243P (antibody, human IgG4, V domains shown, H4H prefix = human IgG4 Fc) VH: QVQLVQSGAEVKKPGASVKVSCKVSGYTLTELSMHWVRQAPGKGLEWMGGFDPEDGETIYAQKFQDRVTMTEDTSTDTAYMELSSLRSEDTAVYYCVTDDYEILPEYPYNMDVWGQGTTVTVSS VL: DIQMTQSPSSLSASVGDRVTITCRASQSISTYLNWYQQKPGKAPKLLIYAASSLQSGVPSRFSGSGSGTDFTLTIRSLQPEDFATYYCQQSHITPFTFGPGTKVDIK :: 7050

Determine from records and report kon for H4H2780N (antibody, human IgG4, V domains shown, H4H prefix = human IgG4 Fc) VH: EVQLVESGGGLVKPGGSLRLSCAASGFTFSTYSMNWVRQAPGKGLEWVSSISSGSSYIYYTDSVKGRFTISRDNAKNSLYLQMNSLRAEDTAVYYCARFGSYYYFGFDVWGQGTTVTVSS VL: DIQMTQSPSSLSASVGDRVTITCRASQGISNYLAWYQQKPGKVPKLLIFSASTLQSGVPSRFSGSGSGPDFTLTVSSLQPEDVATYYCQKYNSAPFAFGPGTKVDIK 57400
